# SYSTEM_NAME: Abeta monomers (Homo sapiens, UniProt P05067)
# Construct: incubate with FITC Abeta monomers, oligomers, fibrils and FITC for 1 hour at room temperature
# Sequence (P05067 672-713 limits assumed): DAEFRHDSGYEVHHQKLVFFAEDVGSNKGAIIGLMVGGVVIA
# MEASUREMENT_NOTES: Peptide microarray, binding of FITC Abeta monomers to immobilized peptides
# TEST_CONDITIONS: quotient binding signal to monomers / binding signal to oligomers
Where a SMILES comes first, the peptide text is derived from it. [ ]: non-standard residue; d: D form.
MEASURED_ENDPOINT: Binding specificity monomer to oligomer
Write the number on its own, no unit after it.

## Input Please look up its Binding specificity monomer to oligomer: CC[C@@H](C)[C@@H](NC(=O)[C@@H](CCCNC(=N)N)NC(=O)[C@@H](CCCCN)NC(=O)[C@H](N)CCCNC(=N)N)C(=O)N[C@H](CCCNC(=N)N)C(=O)N[C@H](CC(C)C)C(=O)N[C@@H](C(=O)N[C@H](Cc1ccc(O)cc1)C(=O)N[C@H](Cc1c[nH]cn1)C(=O)N[C@H](Cc1c[nH]c2ccccc12)C(=O)N[C@H](CC(N)=O)C(=O)N[C@H](CCCNC(=N)N)C(N)=O)C(C)C [ANK4, rkrirlvyhwnr] (H-[dR][dK][dR][dI][dR][dL][dV][dY][dH][dW][dN][dR]-NH2)
## Output 3.3

====

# SYSTEM_NAME: Abeta monomers (Homo sapiens, UniProt P05067)
# Construct: incubate with FITC Abeta monomers, oligomers, fibrils and FITC for 1 hour at room temperature
# MEASUREMENT_NOTES: Peptide microarray, binding of FITC Abeta monomers to immobilized peptides
# TEST_CONDITIONS: peptide microarray, FITC Abeta, 1 hour at room temperature, control subtracted, averaged
[ ]: non-standard residue; d: D form. dPhg = N[C@@H](C(=O)O)c1ccccc1
MEASURED_ENDPOINT: Binding signal to Abeta monomers (rfu)
Number in rfu, nothing else.

## Input Please look up its Binding signal to Abeta monomers: rprvrl06yhwnr (H-[dR][dP][dR][dV][dR][dL][dPhg][dY][dH][dW][dN][dR]-NH2; SMILES CC(C)C[C@@H](NC(=O)[C@@H](CCCNC(=N)N)NC(=O)[C@H](NC(=O)[C@@H](CCCNC(=N)N)NC(=O)[C@H]1CCCN1C(=O)[C@H](N)CCCNC(=N)N)C(C)C)C(=O)N[C@@H](C(=O)N[C@H](Cc1ccc(O)cc1)C(=O)N[C@H](Cc1c[nH]cn1)C(=O)N[C@H](Cc1c[nH]c2ccccc12)C(=O)N[C@H](CC(N)=O)C(=O)N[C@H](CCCNC(=N)N)C(N)=O)c1ccccc1) [ANK15, D3 derivative; 06: Phenylglycine (D)]
## Output 1.3

====

# SYSTEM_NAME: Abeta oligomers (Homo sapiens)
# Sequence (P05067 672-713 limits assumed): as above
# MEASUREMENT_NOTES: Peptide microarray, binding of FITC Abeta oligomers to immobilized peptides
# TEST_CONDITIONS: 1 hour at room temperature, control subtracted, averaged
# Description: The procedure for identifying peptides that bind specifically to amyloid beta monomer or specifically to amyloid beta oligomers and for determining the binding specificity of peptides within the meaning of the present invention can thus be as follows. […] The binding of the fluorescence-labeled Abeta to the immobilized peptides is detected by way of the fluorescent dye. The more Abeta binds to the peptide, the higher the fluorescence signal is. […]
[ ]: non-standard residue; d: D form. d(hArg) = N=C(N)NCCCC[C@@H](N)C(=O)O; dPhg = N[C@@H](C(=O)O)c1ccccc1
MEASURED_ENDPOINT: Binding signal to Abeta oligomers (rfu)
Number in rfu, nothing else.

>>> test_result("rkrirl06yhikr (H-[dR][dK][dR][dI][dR][dL][dPhg][dY][dH][dI][dK][dR]-NH2; SMILES CC[C@@H](C)[C@@H](NC(=O)[C@@H](Cc1c[nH]cn1)NC(=O)[C@@H](Cc1ccc(O)cc1)NC(=O)[C@H](NC(=O)[C@@H](CC(C)C)NC(=O)[C@@H](CCCNC(=N)N)NC(=O)[C@H](NC(=O)[C@@H](CCCNC(=N)N)NC(=O)[C@@H](CCCCN)NC(=O)[C@H](N)CCCNC(=N)N)[C@H](C)CC)c1ccccc1)C(=O)N[C@H](CCCCN)C(=O)N[C@H](CCCNC(=N)N)C(N)=O) [ANK17, D3 derivative; 06: Phenylglycine (D)]")
1.0

As a next step, examine the substance that follows.
## Input Please look up its Binding signal to Abeta oligomers: rpr07rlhtkkkr (H-[dR][dP][dR][d(hArg)][dR][dL][dH][dT][dK][dK][dK][dR]-NH2; SMILES CC(C)C[C@@H](NC(=O)[C@@H](CCCNC(=N)N)NC(=O)[C@@H](CCCCNC(=N)N)NC(=O)[C@@H](CCCNC(=N)N)NC(=O)[C@H]1CCCN1C(=O)[C@H](N)CCCNC(=N)N)C(=O)N[C@H](Cc1c[nH]cn1)C(=O)N[C@@H](C(=O)N[C@H](CCCCN)C(=O)N[C@H](CCCCN)C(=O)N[C@H](CCCCN)C(=O)N[C@H](CCCNC(=N)N)C(N)=O)[C@H](C)O) [ANK18, D3 derivative; 07: D-Homoarginine]
## Output 0.2
